Assay: Quantitative highthroughput screen to assess conditional lethalithy of SEM cells grown in RPMI1640 with dialyzed fetal bovine serum (RPMI+ds) (AID 1963884); note: nearly all actives have a fitted effect of over 35% in size; note: potency is the fitted concentration of half-maximal effect
Settings: SEM B-ALL cells, RPMI+dialyzed FBS, CellTiter-Glo viability, 48 h; series mostly up to 45.8 µM
Records with an inconclusive call do not appear. The source made the active and inactive calls. Calls come from the whole dose curve; as a rule, active = well fitted cell-killing curve with a large enough effect; inconclusive = small, poorly fitted or top-dose-only effect, or effect the other way; inactive = no such curve, though single readings can be large or run the other way.
readout: Potency

Please review the following examples before continuing.
[
  {
    "compound": "OC1CCC(Nc2ncc3nc(Nc4c(F)cc(F)cc4F)n([C@@H]4CCOC4)c3n2)CC1 (some centres undefined)",
    "assayValue": "inactive"
  },
  {
    "compound": "CN(C)CC=CC(=O)Nc1cc2c(Nc3ccc(F)c(Cl)c3)ncnc2cc1O[C@H]1CCOC1",
    "assayValue": "1.18 µM (active)"
  },
  {
    "compound": "CO[C@H]1C=CO[C@@]2(C)Oc3c(C)c(O)c4c(O)c(c5c(c4c3C2=O)NC2(CCN(CC(C)C)CC2)N=5)=NC(=O)C(C)=CC=C[C@H](C)[C@H](O)[C@@H](C)[C@@H](O)[C@@H](C)[C@H](OC(C)=O)[C@H]1C",
    "assayValue": "inactive"
  },
  {
    "compound": "CCCc1nc(C)c2c(=O)[nH]c(-c3cc(S(=O)(=O)N4CCN(CC)CC4)ccc3OCC)nn12",
    "assayValue": "7.43 µM (active)"
  },
  {
    "compound": "COc1cc2c(Nc3ccc(Cl)c(Cl)c3F)ncnc2cc1OCC1C[C@@H]2CN(C)C[C@H]2C1",
    "assayValue": "11.8 µM (active)"
  },
  {
    "compound": "CN(C)CCOC(c1ccccc1)c1ccccc1",
    "assayValue": "inactive"
  },
  {
    "compound": "Cc1cnc(NC(=O)C2=C(O)c3ccccc3S(=O)(=O)N2C)s1",
    "assayValue": "inactive"
  },
  {
    "compound": "Oc1ccc([C@@H]2Oc3ccc(O)cc3[C@@H]3CCC[C@@H]32)cc1",
    "assayValue": "10.5 µM (active)"
  },
  {
    "compound": "CCCCN1CCC(CNC(=O)c2c3n(c4ccccc24)CCCO3)CC1",
    "assayValue": "inactive"
  },
  {
    "compound": "COc1nc(-c2ccc3c(c2)OCO3)n(-c2ccc(NC(=O)CSc3ccccc3)cc2)n1",
    "assayValue": "inactive"
  }
]

// recorded Potency for COc1ccc(-c2oc3cc(OC)ccc3c2C(=O)c2ccc(C#N)cc2)cc1 : inactive

// recorded Potency for O=C(Nc1ccc(OC(F)(F)F)cc1)c1sccc1NCc1ccnc2ccccc12 : 7.43 µM (active)

// recorded Potency for CC(=O)OCC(=O)[C@@]1(O)CC[C@H]2[C@@H]3CCC4=CC(=O)C=C[C@]4(C)[C@@H]3[C@@H](O)C[C@@]21C : inactive

// recorded Potency for Cc1ncc([N+](=O)[O-])n1CCO : inactive

----------
Experiment: Quantitative highthroughput screen to assess conditional lethalithy of P12 Ichikawa cells grown in RPMI1640 with untreated serum (RPMI+s) (AID 1963881); note: nearly all actives have a fitted effect of over 35% in size
Conditions: ATP luminescence, 48 h; viability; series mostly up to 45.8 µM
Inconclusive results are not listed. Calls of active or inactive are those of the source. Calls follow the shape of the dose curve; as a rule, active = well fitted cell-killing curve with a large enough effect; inconclusive = small, poorly fitted or top-dose-only effect; inactive = flat fitted curve, though single readings scatter.
# output must be one of active, inactive

Please state the recorded outcome for this compound: CC(C)OC(=O)[C@H](C)N[P@](=O)(OC[C@H]1O[C@@H](n2ccc(=O)[nH]c2=O)[C@](C)(F)[C@H]1O)Oc1ccccc1 active

Please state the recorded outcome for this compound: O=C(O)COCCN1CCN(C(c2ccccc2)c2ccc(Cl)cc2)CC1 (centres undefined) inactive

Please state the recorded outcome for this compound: c1cc(OCCN2CCCCC2)cc(-c2n[nH]c3ccc(-c4ncn[nH]4)cc23)c1 inactive

Please state the recorded outcome for this compound: O=[N+]([O-])c1cn2c(n1)OC[C@@H](OCc1ccc(OC(F)(F)F)cc1)C2 inactive

Please state the recorded outcome for this compound: Cc1nn(C)c2c1C(c1ccc(C(F)(F)F)cc1)C(C#N)=C(N)O2 (centres undefined) inactive

Please state the recorded outcome for this compound: O=C(O)CCc1ccc(NCc2cccc(Oc3ccccc3)c2)cc1 inactive

Please state the recorded outcome for this compound: CCC(=O)NC[C@H](Cc1ccc(OCCc2nc(-c3ccccc3)oc2C)cc1)NC(C)=CC(=O)c1ccc(C(F)(F)F)cc1 active

Please state the recorded outcome for this compound: COc1cccc2nc(-c3cccs3)nc(NN3C(=O)C=C(C)C3=O)c12 active

Please state the recorded outcome for this compound: CC(C)c1nn(-c2c(Cl)cccc2Cl)c2nc(Cc3ccc(OCCO)cc3)[nH]c(=O)c12 active
